Entries and their measured chemical recovery follow.
experiment: chemical recovery from spiked human plasma; higher = better extraction; details: pooled human plasma; extraction method: solvent precipitation (ACN + hexane)
test readout: chemical recovery (%)

>>> measurement("CN1CCC[C@H]1c1cccnc1 [Nicotine]")
49.1
>>> measurement("CCCOc1nn(C(=O)NS(=O)(=O)c2ccccc2C(=O)OC)c(=O)n1C [Propoxycarbazone]")
75.6
>>> measurement("O=C1Cc2cc(CCN3CCN(c4nsc5ccccc45)CC3)c(Cl)cc2N1 [Ziprasidone]")
76
>>> measurement("O=S(=O)(O)C(F)(F)C(F)(F)C(F)(F)C(F)(F)F [Perfluorobutanesulfonic-acid]")
81.9
>>> measurement("COc1cc(Cl)ccc1Oc1ccc(Cl)cc1Cl [Triclosan-methyl]")
22.2
>>> measurement("O=C(NCc1ncc(C(F)(F)F)cc1Cl)c1c(Cl)cccc1Cl [Fluopicolide]")
79.1
>>> measurement("CCN(CCC#N)c1ccc(N=Nc2c(Br)cc([N+](=O)[O-])cc2Br)cc1 [Disperse-Orange-61]")
80.2
>>> measurement("COc1ccc(Cl)cc1C(=O)NCCc1ccc(S(=O)(=O)NC(=O)NC2CCCCC2)cc1 [Glibenclamide]")
74.9
>>> measurement("CC1(C(=O)Nc2ccc(O)c(Cl)c2Cl)CCCCC1 [Fenhexamid]")
66.2
>>> measurement("Nc1ccc(-c2ccc(N)cc2)cc1 [Benzidine]")
38.3
>>> measurement("CCCCCCS(=O)(=O)O [1-Hexanesulfonic-acid]")
74.2
>>> measurement("CCCCc1nc(Cl)c(CO)n1Cc1ccc(-c2ccccc2-c2nnn[nH]2)cc1 [Losartan]")
77.2
>>> measurement("COP(=O)(OC)C(O)C(Cl)(Cl)Cl (centres undefined) [Trichlorfon]")
0.0499
>>> measurement("Clc1cc(Cl)c(-c2cc(Cl)c(Cl)cc2Cl)cc1Cl [PCB153]")
77.6

---

test: chemical recovery from spiked human plasma; higher = better extraction; conditions: pooled human plasma; extraction method: SPE only (HLB 96-well)
Lab note: class by chemical recovery, see lower range = under 30%, middle range = from 30% up to 40%, upper range = 40% and over

>>> group_label("CC(=O)CCC1C(C)=CCCC1(C)C (stereo not drawn) [Dihydro-alpha-ionone]")
"lower range"
>>> group_label("Nc1c(Br)cc(Br)cc1CN[C@H]1CC[C@H](O)CC1")
"middle range"
>>> group_label("N#Cc1c(O)c(Cl)c(Cl)c(C#N)c1Cl [Chlorothalonil-4-hydroxy]")
"middle range"
>>> group_label("Clc1ccc(COC(Cn2ccnc2)c2ccc(Cl)cc2Cl)c(Cl)c1 (stereo not given)")
"upper range"
>>> group_label("CCC(C)(C)c1cc(-n2nc3ccccc3n2)c(O)c(C(C)(C)CC)c1")
"lower range"
>>> group_label("CCCCOP(=O)(O)OCCCC [Di-n-butyl phosphate]")
"middle range"
>>> group_label("CC(=O)Nc1ccccc1 [Acetanilide]")
"upper range"
>>> group_label("O=c1[nH]sc2ccccc12")
"lower range"
>>> group_label("CCCOc1nn(C(=O)NS(=O)(=O)c2ccccc2C(=O)OC)c(=O)n1C")
"middle range"

---

experiment: chemical recovery by SPE of plasma after PDMS sampling; higher = better extraction; settings: pooled human plasma; extraction method: HLB SPE of plasma after PES; equilibration time (d): 3
Entries and their measured chemical recovery by SPE of plasma follow.
test readout: chemical recovery by SPE of plasma (%)

>>> measurement("COC(=O)[C@H](c1ccccc1Cl)N1CCc2sccc2C1")
1.02
>>> measurement("CCc1cccc(C)c1N(C(=O)CS(=O)(=O)O)[C@@H](C)C(=O)O [Metolachlor-NOA 413-173]")
27.8
>>> measurement("CCCCC(C#N)(Cn1cncn1)c1ccc(Cl)cc1 (centres undefined)")
1.32
>>> measurement("N#Cc1nn(-c2c(Cl)cc(C(F)(F)F)cc2Cl)c(N)c1SC(F)(F)F [Fipronil sulfide]")
19.9
